testName: Biodistribution in mouse Cloudman S91 tumor bearing DBA2 mouse intestine at 10 mg/kg, ip after 24 hrs
Assay type: ADME, organism-based
Parameters: dose 10 mg/kg, route intraperitoneal
appliedConditions: read-out: Drug uptake
testReadout: concentration at 24 h

Challenge: Would you mind telling me what concentration at 24 h value was observed for CCNS(=O)(=O)c1ccc(Cl)c(-c2c3nc(c(-c4c(Cl)ccc(S(=O)(=O)NCC)c4Cl)c4ccc([nH]4)c(-c4c(Cl)ccc(S(=O)(=O)NCC)c4Cl)c4nc(c(-c5c(Cl)ccc(S(=O)(=O)NCC)c5Cl)c5ccc2[nH]5)CC4)CC3)c1Cl ?
Response given: 750 ng/g

###

testName: Biodistribution in mouse Cloudman S91 tumor bearing DBA2 mouse intestine at 10 mg/kg, ip after 12 hrs
Assay type: ADME, organism-based
Set-up: dose 10 mg/kg, route intraperitoneal
appliedConditions: read-out: Drug uptake
testReadout: concentration at 12 h (ng/g)
Provide only the numeric value, understood in ng/g.

Challenge: Would you mind telling me what concentration at 12 h value was observed for CCNS(=O)(=O)c1ccc(Cl)c(-c2c3nc(c(-c4c(Cl)ccc(S(=O)(=O)NCC)c4Cl)c4ccc([nH]4)c(-c4c(Cl)ccc(S(=O)(=O)NCC)c4Cl)c4nc(c(-c5c(Cl)ccc(S(=O)(=O)NCC)c5Cl)c5ccc2[nH]5)CC4)CC3)c1Cl ?
Response given: 1200

###

testName: Biodistribution in mouse Cloudman S91 tumor bearing DBA2 mouse skin at 10 mg/kg, ip after 48 hrs
Type: ADME, organism-based, Zone of skin
Set-up: dose 10 mg/kg, route intraperitoneal
appliedConditions: read-out: Drug uptake
testReadout: concentration at 48 h (ng/g)
Provide only the numeric value, understood in ng/g.

Challenge: Would you mind telling me what concentration at 48 h value was observed for CCNS(=O)(=O)c1ccc(Cl)c(-c2c3nc(c(-c4c(Cl)ccc(S(=O)(=O)NCC)c4Cl)c4ccc([nH]4)c(-c4c(Cl)ccc(S(=O)(=O)NCC)c4Cl)c4nc(c(-c5c(Cl)ccc(S(=O)(=O)NCC)c5Cl)c5ccc2[nH]5)CC4)CC3)c1Cl ?
Response given: 80

###

testName: Biodistribution in mouse Cloudman S91 tumor bearing DBA2 mouse lungs at 10 mg/kg, ip after 6 hrs
Type: ADME, organism-based
Design: dose 10 mg/kg, route intraperitoneal
appliedConditions: lung, read-out: Drug uptake
testReadout: concentration at 6 h (ng/g)
Provide only the numeric value, understood in ng/g.

Challenge: Would you mind telling me what concentration at 6 h value was observed for CCNS(=O)(=O)c1ccc(Cl)c(-c2c3nc(c(-c4c(Cl)ccc(S(=O)(=O)NCC)c4Cl)c4ccc([nH]4)c(-c4c(Cl)ccc(S(=O)(=O)NCC)c4Cl)c4nc(c(-c5c(Cl)ccc(S(=O)(=O)NCC)c5Cl)c5ccc2[nH]5)CC4)CC3)c1Cl ?
Response given: 300
